Experiment: NCI Yeast Anticancer Drug Screen. Data for the bub3 strain (AID 167)
Conditions: S. cerevisiae bub3 mutant strain, at 50.0 µM, stronger effect = higher value
Compounds without any hit were thinned out: in the full panel of roughly 79,000, 15% have a hit.
For each of the compounds below, state its growth inhibition.
The reply should contain only the number, in %.

Please report the recorded growth inhibition for O=C(OCc1ccccc1)/C(c1ccccc1)=[N+]1/C(=S)Nc2ccc([N+](=O)[O-])cc21 .
13.9

Please report the recorded growth inhibition for N#CC(OC(=O)c1ccccc1)C(OC(=O)c1ccccc1)C(COC(=O)c1ccccc1)OC(=O)c1ccccc1 (stereo not drawn) .
-10.5

Please report the recorded growth inhibition for COc1ccc2c(c1)CC1(CC2)CCN(CCCN(C)C)CC1 .
-9.7

Please report the recorded growth inhibition for CC1CC(=O)CC[C@@H]1OCc1ccccc1 (stereo partly drawn) .
-8.95

Please report the recorded growth inhibition for Cc1ccc(N=C(c2ccccc2)c2ccc([N+](=O)[O-])cc2)cc1 .
21.4

Please report the recorded growth inhibition for NC(N)=NC(N)=Nc1c(F)c(F)c(F)c(F)c1F .
-3.6

Please report the recorded growth inhibition for CCOC(=O)CCCCCSc1n[nH]c(=O)[nH]c1=O .
6.15

Please report the recorded growth inhibition for CCOC(=O)CC/C(=N/Nc1ccc(Cl)cc1[N+](=O)[O-])C(=O)OCC .
-24.6

Please report the recorded growth inhibition for COC1=C(OC)C(=O)C(COC2CCCCO2)=CC1=O (stereo not drawn) .
10.6

Please report the recorded growth inhibition for NC(CCC(=O)NC1(C(=O)O)C2CC3CC(C2)CC1C3)C(=O)O (stereo not drawn) .
-4.4

Please report the recorded growth inhibition for OC1(CSc2ccccc2)CCCCC1 .
-10.7

Please report the recorded growth inhibition for Oc1ccc2ccccc2c1C(c1cccc2ccccc12)N1CCCCC1 (stereo not drawn) .
16.1

Please report the recorded growth inhibition for Nc1cccc(S(N)(=O)=O)c1 .
12.2

Please report the recorded growth inhibition for CN(CC(=O)O)c1ncc2c(n1)-c1ccccc1SC2 .
-14.3

Please report the recorded growth inhibition for O=C1c2ccccc2C(=O)c2c(O)c(Cc3ccccc3)cc(O)c21 .
10.2

Please report the recorded growth inhibition for [O-]c1c2c(nn1-c1ccc(Cl)cc1)c1ccccc1c[n+]2Cc1ccccc1 .
11.4

Please report the recorded growth inhibition for CS(=O)(=O)C(CCC(=O)c1ccc2ccccc2c1)C(=O)c1ccccc1 (stereo not drawn) .
-2.4

Please report the recorded growth inhibition for NCCCn1cnc2c(N)ncnc21 .
-16.4

Please report the recorded growth inhibition for CCCCCCCCCCCC(=O)Nc1ccc(NC(C)=O)cc1 .
24.9

Please report the recorded growth inhibition for Cc1cccc([N+](=O)[O-])c1C .
10.8

Please report the recorded growth inhibition for Cc1[nH]c2cc([N+](=O)[O-])ccc2c1C .
1.3

Please report the recorded growth inhibition for CCc1cc(Cl)c(O)c(Cl)c1 .
17.5

Please report the recorded growth inhibition for Nc1ccc(N=Nc2ccc(N)cc2)cc1 .
11.2

Please report the recorded growth inhibition for C=CCNC(=S)Nc1cccc(C(C)OC(=O)NC(C)(C)C)c1 (stereo not drawn) .
33.8

Please report the recorded growth inhibition for CCCC1OCC(C)(CC)CO1 (stereo not drawn) .
-9.65

Please report the recorded growth inhibition for CC(C)/C(Cl)=N\OC(NC(=O)P(=O)(c1ccccc1)c1ccccc1)(C(F)(F)F)C(F)(F)F .
52.4

Please report the recorded growth inhibition for CCCCCCCNC1=C(O)c2ccccc2C(=O)C1=O .
12.3

Please report the recorded growth inhibition for C/C=C\c1ccc2oc(-c3ccc4c(c3)OCO4)c(C)c2c1 .
-4.6

Please report the recorded growth inhibition for NC(=S)N/N=C/c1ccco1 .
-23.9

Please report the recorded growth inhibition for O=C(Nc1cc([N+](=O)[O-])cc2c1[nH]c(=O)c1ccccc12)C(F)(F)F .
-7.4

Please report the recorded growth inhibition for CCN(C(=O)NC(C)(C)C)c1cccc(C)c1 .
-0.3

Please report the recorded growth inhibition for CCCCCCCCCCCCCCCC(=O)Nc1ccn(C2OC(CO)C(O)C2O)c(=O)n1 (stereo not drawn) .
-6.8

Please report the recorded growth inhibition for C/C(=N\Nc1ccc([N+](=O)[O-])cc1[N+](=O)[O-])C1(C)CC=CCC1C (stereo not drawn) .
-1.7

Please report the recorded growth inhibition for OC1CCC2OC12 (stereo not drawn) .
-1.3

Please report the recorded growth inhibition for CC1(C)C(=NN=C(N)N)C(C)(C)C1=NN=C(N)N .
-18.5

Please report the recorded growth inhibition for N#CN(Cc1ccccc1)Cc1ccccc1 .
10.7

Please report the recorded growth inhibition for c1ccc([Si](c2ccccc2)(c2cccs2)c2cccs2)cc1 .
3.6

Please report the recorded growth inhibition for CC(C)NC(=O)C1C2CCC(CC2)C1C(=O)NC(C)C (stereo not drawn) .
17.7

Please report the recorded growth inhibition for CCCCn1c(=O)c2c(ncn2C)n(C)c1=O .
-2.45

Please report the recorded growth inhibition for O=C(Nc1ccc(Br)cc1)Oc1ccc(-c2ccccc2)cc1 .
41.8

Please report the recorded growth inhibition for CS/C(N)=N\C(=O)N(C)C .
-8.55

Please report the recorded growth inhibition for CS(=O)CC1OC2OC3C(CO)OC(OC4C(CO)OC(OC5C(CO)OC(OC6C(CO)OC(OC7C(CO)OC(OC8C(CO)OC(OC1C(O)C2O)C(O)C8O)C(O)C7O)C(O)C6O)C(O)C5O)C(O)C4O)C(O)C3O (stereo not drawn) .
-8

Please report the recorded growth inhibition for O=S(=O)(c1ccccc1)C1CCCCC1I (stereo not drawn) .
23.7

Please report the recorded growth inhibition for c1ccn2c(CCc3nnc4ccccn34)nnc2c1 .
-1.9

Please report the recorded growth inhibition for CCN(CC)C(=O)CCn1ccc(=O)[nH]c1=O .
-2.75

Please report the recorded growth inhibition for O=[N+]([O-])c1ccccc1C1N2CCCCC2[C@@H]2c3[nH]c4ccccc4c3CCN12 (stereo partly drawn) .
3.05

Please report the recorded growth inhibition for Cc1c(-c2ccccc2)nnn1-c1ccc(F)c(Cl)c1 .
6.95

Please report the recorded growth inhibition for CCC(CCc1ccc(OC)c(OC)c1)C(=O)O (stereo not drawn) .
29.4

Reference for the values: PubChem BioAssay (NCI)
